Test system: α2-GABAA receptor
TEST_METHOD_NOTES: Ligand-binding assay, competitive with radiolabeled flumazenil, spinal cord membranes
REPORTED_CONDITIONS: Affinity for α2-GABAA receptor; 10^-5M test compound; rat spinal cord membranes; radiolabeled flumazenil 1 nM
If the reported % Inhibition 10^−5M equals or exceeds 70%, assign satisfied. If not, assign not satisfied.

INSERT INTO results (compound, classification) VALUES
  ('COc1ccc(C(=O)NCc2c(-c3ccc(C)cc3)nc3ccc(C)cn23)cc1 [Example 11]', 'not satisfied'),
  ('Cc1ccc(-c2nc3ccc(C)cn3c2CNC(=O)C2CCC2)cc1 [Example 58]', 'satisfied'),
  ('Cc1ccc(-c2nc3ccc(C)cn3c2CNC(=O)c2ncc(F)cc2F)cc1 [Example 20]', 'satisfied'),
  ('Cc1ccc(-c2nc3ccc(C)cn3c2CNC(=O)c2nc(C)oc2C)cc1 [Example 83]', 'satisfied'),
  ('Cc1ccc(-c2nc3ccc(C)cn3c2CNC(=O)c2cscn2)cc1 [Example 81]', 'satisfied'),
  ('Cc1ccc(-c2nc3ccc(C)cn3c2CNC(=O)c2ccc([N+](=O)[O-])o2)cc1 [Example 14]', 'satisfied'),
  ('Cc1ccc(-c2nc3ccc(C)cn3c2CNC(=O)c2occc2C)cc1 [Example 15]', 'not satisfied'),
  ('Cc1ccc(-c2nc3ccc(C)cn3c2CN(C)C(=O)c2ccccn2)cc1 [Example 28]', 'satisfied'),
  ('Cc1ccc(-c2nc3ccc(C)cn3c2CNC(=O)c2cnc(C)cn2)cc1 [Example 61]', 'satisfied'),
  ('Cc1ccc(-c2nc3ccc(C)cn3c2CNC(=O)c2sccc2C)cc1 [Example 16]', 'not satisfied'),
  ('Cc1ccc(-c2nc3ccc(C)cn3c2CN(C)C(=O)c2ccc([N+](=O)[O-])o2)cc1 [Example 32]', 'satisfied'),
  ('Cc1ccc(-c2nc3ccc(C)cn3c2CNC(=O)c2cn(C)cn2)cc1 [Example 74]', 'satisfied'),
  ('Cc1ccc(-c2nc3ccc(C)cn3c2CC(=O)N(C)C)cc1 [Zolpidem, reference compound]', 'satisfied'),
  ('Cc1ccc(-c2nc3ccc(C)cn3c2CNC(=O)Cc2cccs2)cc1 [Example 71]', 'not satisfied'),
  ('Cc1ccc(-c2nc3ccc(C)cn3c2CNC(=O)c2c(C)noc2C)cc1 [Example 90]', 'not satisfied'),
  ('Cc1ccc(-c2nc3ccc(C)cn3c2CN(C)C(=O)c2ccc3ccccc3n2)cc1 [Example 35]', 'not satisfied'),
  ('Cc1ccc(-c2nc3ccc(C)cn3c2CNC(=O)c2ccnc(Cl)c2)cc1 [Example 17]', 'not satisfied'),
  ('Cc1ccc(C(=O)N(C)Cc2c(-c3ccc(C)cc3)nc3ccc(C)cn23)cc1 [Example 30]', 'not satisfied');
